- TARGET DESC: Mouse ACVR2A (mouse, UniProt P27038 20-135, limits assumed); further: test concentration or dose not given here
- Sequence (P27038 20-135 limits assumed): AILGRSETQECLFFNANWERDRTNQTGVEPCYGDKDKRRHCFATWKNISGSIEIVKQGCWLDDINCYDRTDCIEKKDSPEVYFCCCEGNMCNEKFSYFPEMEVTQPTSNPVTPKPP
- METHOD: ELISA
Labelling field: enter true if recorded optical density is less than 3 OD. Enter false if it equals or exceeds that cut-off.

Use the examples below as a reference point.
365_B06 (antibody, V domains shown, VH/VL only) VH: EVQLLESGGGLVQPGGSLRLSCAASGFTFDSYGMHWVRQAPGKGLEWVSNINYNGGYKSYADSVKGRFTISRDNSKNTLYLQMNSLRAEDTAVYYCARSANWHDTALDYWGQGTLVTVSS VL: DIQMTQSPSSLSASVGDRVTITCRASQSILTYVNWYQQKPGKAPKLLIYATTSLASGVPSRFSGSGSGTDFTLTISSLQPEDFATYYCQQSYDLPLTFGGGTKVEIK : true
371_F09 (antibody, V domains shown, VH/VL only) VH: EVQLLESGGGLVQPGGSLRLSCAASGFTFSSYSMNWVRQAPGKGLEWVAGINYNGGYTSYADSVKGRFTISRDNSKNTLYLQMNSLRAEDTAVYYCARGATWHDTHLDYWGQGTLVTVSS VL: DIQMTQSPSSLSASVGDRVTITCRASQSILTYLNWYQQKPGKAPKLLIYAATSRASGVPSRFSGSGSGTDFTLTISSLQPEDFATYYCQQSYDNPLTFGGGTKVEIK : false
369_A11 (antibody, V domains shown, VH/VL only) VH: EVQLLESGGGLVQPGGSLRLSCAASGFTFDSYGMNWVRQAPGKGLEWVANINYNGGYKGYADSVKGRFTISRDNSKNTLYLQMNSLRAEDTAVYYCARGATWHDTHLDYWGQGTLVTVSS VL: DIQMTQSPSSLSASVGDRVTITCRASQSIITYLNWYQQKPGKAPKLVIYAATSRHSGVPSRFSGSGSGTDFTLTISSLQPEDFATYYCQQSYESPLTFGGGTKVEIK : true

*Q* Find out if reported optical density for 373_G02 (antibody, V domains shown, VH/VL only) VH: EVQLLESGGGLVQPGGSLRLSCAASGFTFSSYSMNWVRQAPGKGLEWVSGINYNGGYTSYADSVKGRFTISRDNSKNTLYLQMNSLRAEDTAVYYCARGATWHDTHLDYWGQGTLVTVSS VL: DIQMTQSPSSLSASVGDRVTITCRASQSIITYLNWYQQKPGKAPKLLIYAATSRASGVPSRFSGSGSGTDFTLTISSLQPEDFATYYCQQSYSSPLTFGGGTKVEIK is less than 3 OD
*A* false

src = patent US20210380703A1
